Where do the numbers come from? From patent US20020049223A1.

test system: Haemophilus influenzae DILL AMP R; experiment: Assay A: in vitro antibacterial activity, agar dilution MIC; format: cell-based; settings: Table 1, Assay A, BHI agar, 35-37° C., about 20 to 24 hours; code E = Haemophilus influenzae DILL AMP R; unit assumed
REPORTED PROPERTY: Antibacterial Activity (MIC's), E (µg/mL)

>  <COMPOUND>
Br.CC1Cc2sc(-c3ccc4c(=O)c(C(=O)O)cn(C5CC5)c4c3)cc2CN1 (centres unmarked) [Example 13]

>  <READING>
0.25

$$$$
>  <COMPOUND>
COc1c(-c2cc3c(s2)CC(O)C3)ccc2c(=O)c(C(=O)O)cn(C3CC3)c12 (centres unmarked) [Example 45]

>  <READING>
0.03

$$$$
>  <COMPOUND>
O=C(O)c1cn(C2CC2)c2nc(-c3cc4c(s3)CCC/C4=N\O)c(F)cc2c1=O [Example 49]

>  <READING>
0.06

$$$$
>  <COMPOUND>
Br.CC1NCCc2sc(-c3ccc4c(=O)c(C(=O)O)cn(C5CC5)c4c3OC(F)F)cc21 (centres unmarked) [Example 20]

>  <READING>
0.25

$$$$
>  <COMPOUND>
COc1c(-c2cc3c(s2)CC(O)CC3)ccc2c(=O)c(C(=O)O)cn(C3CC3)c12 (centres unmarked) [Example 47]

>  <READING>
0.5

$$$$
>  <COMPOUND>
COc1c(-c2cc3c(s2)CNCC3)ccc2c(=O)c(C(=O)O)cn(C3CC3)c12.Cl [Example 7]

>  <READING>
0.06

$$$$
>  <COMPOUND>
CC1NCCc2cc(-c3nc4c(cc3F)c(=O)c(C(=O)O)cn4C3CC3)sc21.Cl (centres unmarked) [Example 22]

>  <READING>
0.25

$$$$
>  <COMPOUND>
CC1CNCc2sc(-c3ccc4c(=O)c(C(=O)O)cn(C5CC5)c4n3)cc21.Cl (centres unmarked) [Example 32]

>  <READING>
0.25

$$$$

====

system: Escherichia coli JUHL; experiment: Assay B: in vitro antibacterial activity, broth microdilution MIC (NCCLS); type: cell-based; conditions: Table 2, Assay B, cation-adjusted Mueller Hinton broth, 35° C., 16 to 20 hr; code D = Escherichia coli JUHL; unit assumed
Threshold check on Antibacterial Activity (MIC's), D: at or above 1 µg/mL gives class 1, strictly below gives class 0.

>  <COMPOUND>
O=C(O)c1cn(C2CC2)c2cc(-c3cc4c(s3)C(O)CCC4)c(F)cc2c1=O (centres unmarked)

>  <CATEGORY LABEL>
class 0

$$$$
>  <COMPOUND>
COc1c(-c2cc3c(s2)C(N)C(C)CC3)ccc2c(=O)c(C(=O)O)cn(C3CC3)c12.Cl (centres unmarked)

>  <CATEGORY LABEL>
class 0

$$$$
>  <COMPOUND>
COc1c(-c2cc3c(s2)CCCC3CO)ccc2c(=O)c(C(=O)O)cn(C3CC3)c12 (centres unmarked)

>  <CATEGORY LABEL>
class 0

$$$$
>  <COMPOUND>
Cl.NC1CCCc2cc(-c3nc4c(cc3F)c(=O)c(C(=O)O)cn4C3CC3)sc21 (centres unmarked)

>  <CATEGORY LABEL>
class 0

$$$$
>  <COMPOUND>
COc1c(-c2nc3c(s2)C(=O)CCC3)ccc2c(=O)c(C(=O)O)cn(C3CC3)c12

>  <CATEGORY LABEL>
class 1

$$$$
>  <COMPOUND>
COc1c(-c2cc3c(s2)CCC(C)C3N)ccc2c(=O)c(C(=O)O)cn(C3CC3)c12.Cl (centres unmarked)

>  <CATEGORY LABEL>
class 0

$$$$
>  <COMPOUND>
COc1c(-c2cc3c(s2)CCC(C)(C)/C3=N\O)ccc2c(=O)c(C(=O)O)cn(C3CC3)c12

>  <CATEGORY LABEL>
class 1

$$$$

====

tested on: Escherichia coli JUHL; assay: Assay B: in vitro antibacterial activity, broth microdilution MIC (NCCLS); format: cell-based; settings: Table 2, Assay B, cation-adjusted Mueller Hinton broth, 35° C., 16 to 20 hr; code D = Escherichia coli JUHL; unit assumed
REPORTED PROPERTY: Antibacterial Activity (MIC's), D (µg/mL)

>  <MOLECULE>
Cl.NC1CCCc2sc(-c3ccc4c(=O)c(C(=O)O)cn(C5CC5)c4n3)cc21 (stereo not shown) [Example 200]

>  <TARGET OR SYSTEM>
Escherichia coli JUHL

>  <REPORTED PROPERTY>
Antibacterial Activity (MIC's), D

>  <COMPARISON OPERATOR>
=

>  <READING>
0.06

$$$$
>  <MOLECULE>
CNC1CCCc2sc(-c3c(F)cc4c(=O)c(C(=O)O)cn(C5CC5)c4c3OC)cc21.Cl (stereo not shown) [Example 210]

>  <TARGET OR SYSTEM>
Escherichia coli JUHL

>  <REPORTED PROPERTY>
Antibacterial Activity (MIC's), D

>  <COMPARISON OPERATOR>
=

>  <READING>
0.25

$$$$
>  <MOLECULE>
CON=C1CCc2sc(-c3ccc4c(=O)c(C(=O)O)cn(C5CC5)c4c3OC)cc2C1 [Example 56]

>  <TARGET OR SYSTEM>
Escherichia coli JUHL

>  <REPORTED PROPERTY>
Antibacterial Activity (MIC's), D

>  <COMPARISON OPERATOR>
=

>  <READING>
4

$$$$
>  <MOLECULE>
COc1c(-c2cc3c(s2)C(O)CCC3(C)C)ccc2c(=O)c(C(=O)O)cn(C3CC3)c12 (stereo not shown) [Example 218]

>  <TARGET OR SYSTEM>
Escherichia coli JUHL

>  <REPORTED PROPERTY>
Antibacterial Activity (MIC's), D

>  <COMPARISON OPERATOR>
=

>  <READING>
2

$$$$
>  <MOLECULE>
Cl.NC1CCCc2cc(-c3ccc4c(=O)c(C(=O)O)cn(C5CC5)c4c3Cl)sc21 (stereo not shown) [Example 330]

>  <TARGET OR SYSTEM>
Escherichia coli JUHL

>  <REPORTED PROPERTY>
Antibacterial Activity (MIC's), D

>  <COMPARISON OPERATOR>
=

>  <READING>
0.03

$$$$
>  <MOLECULE>
Cc1c(-c2cc3c(s2)C(N)CCC3)c(F)cc2c(=O)c(C(=O)O)cn(C3CC3)c12.Cl (stereo not shown) [Example 368]

>  <TARGET OR SYSTEM>
Escherichia coli JUHL

>  <REPORTED PROPERTY>
Antibacterial Activity (MIC's), D

>  <COMPARISON OPERATOR>
=

>  <READING>
0.03

$$$$
>  <MOLECULE>
O=C(O)c1cn(C2CC2)c2cc(-c3cc4c(s3)CCCC4O)ccc2c1=O (stereo not shown) [Example 281]

>  <TARGET OR SYSTEM>
Escherichia coli JUHL

>  <REPORTED PROPERTY>
Antibacterial Activity (MIC's), D

>  <COMPARISON OPERATOR>
=

>  <READING>
0.125

$$$$
>  <MOLECULE>
COc1c(-c2cc3c(s2)CCCC3(C)C)ccc2c(=O)c(C(=O)O)cn(C3CC3)c12 [Example 227]

>  <TARGET OR SYSTEM>
Escherichia coli JUHL

>  <REPORTED PROPERTY>
Antibacterial Activity (MIC's), D

>  <COMPARISON OPERATOR>
>

>  <READING>
64

$$$$
>  <MOLECULE>
COc1c(-c2cc3c(s2)C(O)C(F)CC3)ccc2c(=O)c(C(=O)O)cn(C3CC3)c12 (stereo not shown) [Example 240]

>  <TARGET OR SYSTEM>
Escherichia coli JUHL

>  <REPORTED PROPERTY>
Antibacterial Activity (MIC's), D

>  <COMPARISON OPERATOR>
=

>  <READING>
0.5

$$$$
>  <MOLECULE>
COc1c(-c2cc3c(s2)CC(NC(C)=O)C3)ccc2c(=O)c(C(=O)O)cn(C3CC3)c12 (stereo not shown) [Example 252]

>  <TARGET OR SYSTEM>
Escherichia coli JUHL

>  <REPORTED PROPERTY>
Antibacterial Activity (MIC's), D

>  <COMPARISON OPERATOR>
=

>  <READING>
4

$$$$
>  <MOLECULE>
COc1c(-c2cc3c(s2)C(O)C2(CC3)CC2)ccc2c(=O)c(C(=O)O)cn(C3CC3)c12 (stereo not shown) [Example 267]

>  <TARGET OR SYSTEM>
Escherichia coli JUHL

>  <REPORTED PROPERTY>
Antibacterial Activity (MIC's), D

>  <COMPARISON OPERATOR>
=

>  <READING>
0.5

$$$$
>  <MOLECULE>
COc1c(-c2cc3c(s2)CNCC3N)ccc2c(=O)c(C(=O)O)cn(C3CC3)c12 (stereo not shown) [Example 225]

>  <TARGET OR SYSTEM>
Escherichia coli JUHL

>  <REPORTED PROPERTY>
Antibacterial Activity (MIC's), D

>  <COMPARISON OPERATOR>
=

>  <READING>
1

$$$$
>  <MOLECULE>
COc1c(-c2cc3c(s2)CC(C)(C)CC3N)ccc2c(=O)c(C(=O)O)cn(C3CC3)c12.Cl (stereo not shown) [Example 238]

>  <TARGET OR SYSTEM>
Escherichia coli JUHL

>  <REPORTED PROPERTY>
Antibacterial Activity (MIC's), D

>  <COMPARISON OPERATOR>
=

>  <READING>
0.25

$$$$
>  <MOLECULE>
COc1c(-c2cc3c(s2)CCC(F)(F)C3O)ccc2c(=O)c(C(=O)O)cn(C3CC3)c12 (stereo not shown) [Example 204]

>  <TARGET OR SYSTEM>
Escherichia coli JUHL

>  <REPORTED PROPERTY>
Antibacterial Activity (MIC's), D

>  <COMPARISON OPERATOR>
=

>  <READING>
0.125

$$$$
>  <MOLECULE>
O=C(O)c1cn(C2CC2)c2cc(-c3cc4c(s3)CCCC4O)c(F)cc2c1=O (stereo not shown) [Example 296]

>  <TARGET OR SYSTEM>
Escherichia coli JUHL

>  <REPORTED PROPERTY>
Antibacterial Activity (MIC's), D

>  <COMPARISON OPERATOR>
=

>  <READING>
0.5

$$$$
>  <MOLECULE>
Cc1c(-c2cc3c(s2)C(O)CCC3)c(F)cc2c(=O)c(C(=O)O)cn(C3CC3)c12 (stereo not shown) [Example 369]

>  <TARGET OR SYSTEM>
Escherichia coli JUHL

>  <REPORTED PROPERTY>
Antibacterial Activity (MIC's), D

>  <COMPARISON OPERATOR>
=

>  <READING>
0.06

$$$$
